System: UACC-62 melanoma
Assay: NCI-60 one-dose screen, 48 h
Conditions: 10 µM unless noted
Method: Growth inhibition of the UACC-62 human tumor cell line is measured as a screen for anti-cancer activity. Cells are grown in 96 well plates and exposed to the test compound for 48 hours. Compounds are tested at a single concentration, which is 10^-5 M for most compounds. The reported endpoint is percent growth (GI% or GIPRCNT), where numbers from 0 - 100% represent growth inhibition, and numbers from -100% - 0 represent cell death. For example, a value of 40 represents 60% growth inhibition. […]
The panel holds about 83,000 compounds, 20% with a hit somewhere; the sample as a whole holds those more often. Active and inactive are the calls of the source. The calls were made as follows: active = growth percent below 10; inactive = the rest.
Entry note: the call must match one of YES for active, NO for inactive

Use the examples below as a reference point.
compound | subject of test | assigned class
CC1(C)N=C(N)N=C(N)N1c1ccc(OCC(=O)Nc2ccccc2)c(Cl)c1 | UACC-62 melanoma | NO
CC(C)(C)C(=O)Nc1nc2c(s1)CCc1ccn(S(=O)(=O)c3ccccc3)c1-2 | UACC-62 melanoma | NO
O=C1CN(CCN2CC(=O)NC(=O)C2)CC(=O)N1 | UACC-62 melanoma | NO
C=C1C(=O)O[C@H]2[C@H]1CC/C(COC(=O)c1cc(OC)c(OC)c(OC)c1)=C\CC[C@@]1(C)O[C@@H]21 | UACC-62 melanoma | YES
COc1cc(Cn2cc3c(c2)-c2onc(CO)c2CC3)cc(OC)c1OC | UACC-62 melanoma | NO

**Query** Check the results log: what was the call for CN(C)c1ccc(/C=N/N=C(N)N)cc1 ?
**Result** NO

**Query** Just curious, what result did Cc1cc(Nc2ccc(Cl)c(Cl)c2)nc(N)n1 get here?
**Result** NO

**Query** Name the outcome recorded for O=C1CCC(=O)N1C1CCCCC1 in the assay.
**Result** NO

**Query** For CC/C(=C(\CC)c1ccc(OCCN(CC)CC)cc1)c1ccc(OCCN(CC)CC)cc1 , which call appears in the assay record?
**Result** NO

**Query** Hi, sorry to bother you, what did the test record for N#Cc1c(N)nc2c(c1N)C(c1ccc(Cl)cc1)C1=C(CCCC1=O)N2c1sc2c(c1C#N)CCCC2 (centres undefined) ?
**Result** NO

**Query** Short answer needed: outcome of this test for CC1OC(n2c3ccccc3c3c4c(c5c6ccccc6[nH]c5c32)C(=O)N(CCN[C@@H]2CCC[C@H]2N)C4=O)CC(O)C1O (some centres undefined) ?
**Result** NO

**Query** Answer briefly: the call reported for C=C1C(=O)O[C@H]2[C@H]1CC/C(COC(=O)c1ccc(Br)cc1)=C\CC[C@@]1(C)O[C@@H]21 in this assay.
**Result** YES

**Query** Outcome? OC[C@@H](O)C(O[C@@H]1O[C@H](CO)[C@H](O)[C@H](O)[C@H]1O)[C@H](O)[C@@H](O)CO (some centres undefined)
**Result** NO

**Query** What was the test verdict on COc1ccccc1S(=O)(=O)Nc1ccc2c3c(cc(-c4ccoc4)nc13)C(=O)N2C ?
**Result** NO

**Query** Entry CN(C)C(=O)Nc1nc2cc(Cl)c(Cl)cc2[nH]1 : call = ?
**Result** NO

**Query** For this compound, state the assay outcome: O=C(NCCNc1nccc(-c2c(-c3cccc(O)c3)nc3sccn23)n1)c1ccccc1
**Result** YES

**Query** Lab log entry: C=C1C(=O)O[C@H]2[C@H]1CC/C(C(=O)NCCOCCOCC(=O)Nc1ccc(OC)c(C(N)=O)c1O)=C\CC[C@@]1(C)O[C@@H]21 — outcome as called in the assay?
**Result** NO

**Query** What is the recorded call for this compound in the test? COc1cc2ncnc(Oc3ccc(NC(=O)Nc4ccc(C5(C#N)CCCC5)cc4)c4ccccc34)c2cc1OC
**Result** NO

**Query** I'd appreciate the recorded outcome for O=C(Nc1ccc(Cl)c(Cl)c1)Nc1ccc(Cl)c([N+](=O)[O-])c1 from this test.
**Result** YES
